The values you see were collected from PubChem BioAssay (NCI).

- Tested on: SF-539 CNS
- assay: NCI tumour cell line growth inhibition, 48 h
quantity measured: TGI

Below, each entry is followed by its recorded TGI result.
{"compound": "C=CC[N+](CCO)(CCO)CCCCCCCCCCCCCCCCCC", "TGI": "13.1 µM"}
{"compound": "CCCC(=O)Nc1cc(/C=C/C(=O)N2CC(CCl)c3c2cc([N+](=O)[O-])c2ccccc32)n(C)c1 (stereo not given)", "TGI": "> 100 µM"}
{"compound": "COc1cc(/C=c2/c3ccccc3n3c2cc(-c2ccccc2)[n+]3C)cc(OC)c1OC", "TGI": "8.64 µM"}
{"compound": "CC(=O)OCc1ccc(O)c(C=O)c1", "TGI": "> 100 µM"}
{"compound": "CCCCC1(N=[N+]=[N-])C(=O)C2C=CC=C3c4ccccc4N(C1=O)C32 (stereo not given)", "TGI": "> 31.6 µM"}

Would you be so kind as to report TGI for each listed record?
1. COc1cc2cc3c4c(cc(OC)c(OC)c4c2cc1OC)CCN3C(=O)N(C)C
2. COc1cc(O)c2c(=O)c(OC)c(-c3ccc4c(c3)OCO4)oc2c1OC
3. CC(C)[NH-].CC(C)[NH-].O.O.[Cl][Pt+2][Cl]
4. Cc1cc([N+](=O)[O-])ccc1NS(=O)(=O)c1cc(Cl)ccc1Cl

Result string:
["> 100 µM", "> 50 µM", "160 µM", "20.7 µM"]

Query string: // returns reported TGI for input "COc1nc2ccc(CNc3ccc(C(=O)O)cc3)cc2nc1OC"
Result string: > 10 µM

----------
- Tested on: CAKI-1 renal
- assay: NCI tumour cell line growth inhibition, 48 h
quantity measured: TGI (µM)
One number for each entry, in µM.

{"compound": "CCOC(=O)C1=NN(c2ccc(Cl)cc2)C2=CC(C)=NN(C)C(=S)N21", "TGI, µM": 50.4}
{"compound": "CC(O)c1cc2c(s1)C(=O)c1scc(C(C)O)c1C2=O (stereo not given)", "TGI, µM": 2.74}
{"compound": "COc1ccc(-c2cn(-c3cccc(C(=O)/C=C/c4ccc(O)c(OC)c4)c3)c(=O)[nH]2)cc1", "TGI, µM": 50.4}
{"compound": "Cn1c(/C=C(\\C#N)c2cccc(C(F)(F)F)c2)nc2c(N3CCOCC3)nc(Cl)nc21", "TGI, µM": 1.97}
{"compound": "CN(C)CCNC(=O)c1cccc2[nH]c(-c3ccncc3)nc12", "TGI, µM": 5.95}
{"compound": "O=C(O)C(C(=O)C(=O)C(C(=O)O)c1ccc(Cl)cc1)c1ccc(Cl)cc1 (stereo not given)", "TGI, µM": 13.6}
{"compound": "COc1ccc(-c2nn(-c3cccc(Cl)c3)cc2-c2c(C#N)c(=O)n3[nH]c(-c4ccc(C)cc4)nc3c2C#N)cc1", "TGI, µM": 10.4}
{"compound": "Nc1nc2ccc3[nH]ncc3c2c2c1CCCC2", "TGI, µM": 8.24}
{"compound": "CCn1c2ccc(C(=O)CCCN(C)C)cc2c2cc(C(=O)CCCN(C)C)ccc21", "TGI, µM": 7.42}
{"compound": "Cc1ccc(C(=O)/C(=C\\c2ccc([N+](=O)[O-])cc2)S(=O)Cc2ccc(F)cc2)cc1 (stereo not given)", "TGI, µM": 3.84}

Please look at the items below and tell me TGI for each one, in order.
1. CCOc1cc2c(cc1O)CC[C@@H]1[C@@H]2CC[C@]2(C)C(OS(=O)OC3CC[C@@H]4[C@H]5CCc6cc(O)c(OCC)cc6[C@@H]5CC[C@@]34C)CC[C@@H]12 (stereo not given in full)
2. COc1ccc2c(c1)CCc1[nH]nc(-c3cc(OC)c(OC)c(OC)c3)c1-2
3. Cc1oncc1NC1=CC(=O)C(=O)c2ccccc21

Result string:
1: 26; 2: 24.8; 3: 22.6
